Assay: Volume of distribution at steady state in Swiss mouse at 3 mg/kg, iv measured upto 24 hrs by LC-MS/MS analysis
Assay type: ADME, organism-based
Conditions: in vivo, read-out: Vdss
Value Kind: Vd (L/kg)
Numbers only, in L/kg.

q: So what's the measured Vd for this one? CO[C@@H](CNC(=O)[C@H](NC(=O)[C@H](O)[C@H](C)O)[C@H](O)c1cncn1C)[C@H](O)[C@H](O)C(=O)N(C)[C@@H](Cc1ccccc1)C(=O)NCC(=O)N[C@H](C(=O)N[C@@H](CO)C(=O)N[C@H](C(=O)N[C@H](C(=O)N[C@@H](CC(=O)O)C(=O)N1CCC[C@H]1C(=O)NCc1cc(=O)c(O)cn1O)C(C)(C)C)C(C)(C)O)C(C)(C)O
a: 0.25
